molecular target: Solute carrier family 2, facilitated glucose transporter member 1 (Homo sapiens); assay: ST_JUDE_LEISH: Cytotoxicity at 2uM final concentration against transgenic Leishmania Mexicana promastigotes LmGLUT1 that are glucose transport deficient and complemented with the human glucose transporter GLUT1. Activity is measured by DNA content using SYBR green in vitro; assay type: functional
Measured inhibition, listed per entry for reference.

compound | target_or_test_system | inhibition [%]
CCS(=O)(=O)c1ccc(OC)c(Nc2nccc(-c3c(-c4cccc(NC(=O)c5c(F)cccc5F)c4)nn4ncccc34)n2)c1 | Solute carrier family 2, facilitated glucose transporter member 1 (Homo sapiens) | 6.13
Cc1cccc(C(=O)N2CCN(Cc3cccc(NC(=O)c4ccco4)c3)CC2)c1 | Solute carrier family 2, facilitated glucose transporter member 1 (Homo sapiens) | -1.31
Cc1cc(S(=O)(=O)N2CCCCC(c3ccc(C(F)(F)F)cc3)=N2)c(Cl)cc1Cl | Solute carrier family 2, facilitated glucose transporter member 1 (Homo sapiens) | 3.58
O=C(Nc1ccc(-c2cccc(-c3nc4cc(C(F)(F)F)ccc4[nH]3)c2)cc1)c1ccoc1 | Solute carrier family 2, facilitated glucose transporter member 1 (Homo sapiens) | 4.69
CC(C)CCn1c(Sc2ccc([N+](=O)[O-])cc2C(F)(F)F)nnc1-c1ccccc1Cl | Solute carrier family 2, facilitated glucose transporter member 1 (Homo sapiens) | 1.8
Cc1cc(N[C@@H](CC(C)C)C(=O)NCc2cccc(F)c2)nc(NCCc2ccc(F)cc2)n1 | Solute carrier family 2, facilitated glucose transporter member 1 (Homo sapiens) | 4.5
Cc1cccc(CCCNC(=O)CN(c2cccc(C(F)(F)F)c2)S(=O)(=O)c2ccc(C(F)(F)F)cc2)c1 | Solute carrier family 2, facilitated glucose transporter member 1 (Homo sapiens) | 5.38
CC(C)C[C@H](NC(=O)c1ccc(OCCN2CCOCC2)cc1)C(=O)N[C@H](/C=N/N1CCNC1=O)CCc1ccccc1 | Solute carrier family 2, facilitated glucose transporter member 1 (Homo sapiens) | 6.57
COc1cccc(CNC[C@@H](O)[C@H](Cc2ccccc2)NC(=O)c2cc(N3CCCC3=O)c3[nH]cc(C(C)C)c3c2)c1 | Solute carrier family 2, facilitated glucose transporter member 1 (Homo sapiens) | 1.26
Cc1ccc2ncc(Cl)c(CCN3CCC(NCc4ccc5c(n4)NC(=O)CS5)CC3)c2n1 | Solute carrier family 2, facilitated glucose transporter member 1 (Homo sapiens) | 3.75
COCCN(C)CCCOc1cc2c(cc1OC)ncn2-c1cc(OCc2ccccc2C(F)(F)F)c(C(N)=O)s1 | Solute carrier family 2, facilitated glucose transporter member 1 (Homo sapiens) | 2.27
Cc1nnsc1C(=O)Nc1ccc(-c2ccc(-c3nc4cccc(C)c4[nH]3)s2)cc1 | Solute carrier family 2, facilitated glucose transporter member 1 (Homo sapiens) | 5.61
CCOc1ccc(-c2nonc2NC(=O)CC(C)C)cc1OCC | Solute carrier family 2, facilitated glucose transporter member 1 (Homo sapiens) | -0.61
O=C(Cc1c[nH]cn1)Nc1ccc(-c2ccc(-c3nc4cc(C(F)(F)F)ccc4[nH]3)s2)cc1 | Solute carrier family 2, facilitated glucose transporter member 1 (Homo sapiens) | -0.37
O=c1cc(NCCCNCc2cc(C(F)(F)F)ccc2Cl)[nH]c2ccccc12 | Solute carrier family 2, facilitated glucose transporter member 1 (Homo sapiens) | -0.91
O=C(N[C@@H](Cc1ccccc1)C(=O)NC1CCCCCC1)c1ccc(O)c(-c2cccc(C(F)(F)F)c2)c1 | Solute carrier family 2, facilitated glucose transporter member 1 (Homo sapiens) | 5.83
O=C(Nc1ccc(Cn2ncc(N3CCCNCC3)c(Cl)c2=O)cc1)Nc1cccc(Oc2ccccc2)c1 | Solute carrier family 2, facilitated glucose transporter member 1 (Homo sapiens) | 2.36
O=C1COC(c2ccccc2)(c2ccccc2)CN1CC1CCN(Cc2ccc(O)cc2Cl)C1 (stereo not drawn) | Solute carrier family 2, facilitated glucose transporter member 1 (Homo sapiens) | 3.1

// data source = ChEMBL document CHEMBL3433997
